assay: basal RPMI8226 viability, no added stimulus, profiling panel, cell-based, calcein-AM fluorescence, 48 h, PK04 Diversity Set (AID 1166); details: RPMI8226 myeloma viability, higher = more signal;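 note: cells grown under basal conditions without added stimulus; test concentration not given here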
As shown below, each of these compounds has a reported z-score value.

STRUCTURE	z-score
COC(=O)[C@@]1(Cc2ccccc2)[C@H]2c3cc(C(=O)N4CCCC4)n(C)c3C[C@H]2CN1C(=O)c1ccccc1	-0.284
O=C1N(CCS(=O)(=O)c2ccccc2)Cc2ccccc2[C@H]2OC(c3ccc(OCCCO)cc3)=N[C@@]12CCS(=O)(=O)c1ccccc1	0.117
CC(C)CNC(=O)[C@@]1(c2ccc([N+](=O)[O-])cc2)CC(=O)N(CC23CC4CC(CC(C4)C2)C3)[C@@H]1c1ccc(CO)cc1I	-4.32
CN(C)C(=O)[C@@]1(CCC(=O)OC(C)(C)C)N=C(c2ccc(OCCCO)cc2)O[C@H]1c1ccccc1	-1.48
COc1ccc(C#Cc2ccc3c(c2)[C@]2(C(=O)N3)[C@H](C(=O)NC[C@H](O)c3ccccc3)[C@H]3C(=O)O[C@H](c4ccccc4)[C@H](c4ccccc4)N3[C@@H]2c2ccccc2OCCO)cc1	-3.4
COc1ccc(CCNC(=O)[C@@]2(c3ccc([N+](=O)[O-])cc3)CC(=O)N(CC34CC5CC(CC(C5)C3)C4)[C@@H]2c2ccc(CO)cc2)cc1	-4.23

These data points were gathered from PubChem BioAssay.
